- study target: Rho kinase (fused protein of bovine Rho kinase catalyst region and glutathione S-transferase) (Bos taurus, UniProt Q28021)
- Sequence (Q28021 92-354 limits assumed): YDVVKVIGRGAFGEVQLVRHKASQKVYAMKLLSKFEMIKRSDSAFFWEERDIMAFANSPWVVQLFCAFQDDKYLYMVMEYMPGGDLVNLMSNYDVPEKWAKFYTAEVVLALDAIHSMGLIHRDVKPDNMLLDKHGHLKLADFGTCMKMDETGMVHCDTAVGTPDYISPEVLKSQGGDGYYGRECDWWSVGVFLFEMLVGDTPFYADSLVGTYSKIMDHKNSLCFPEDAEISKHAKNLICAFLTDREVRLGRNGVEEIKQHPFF
measure name: pIC50
FYI, pIC50 means -log10 of a concentration in mol per litre.

INSERT INTO results (substance_smiles, obs_value) VALUES
  ('O=C(Nc1ccncc1)Nc1c(Cl)cccc1Cl', 6.07),
  ('c1cc2[nH]ncc2cc1NC1CCCCC1', 6.17),
  ('O=C(Nc1ccncc1)Nc1ccc(F)cc1C(F)(F)F', 5.14),
  ('O=C(NCc1c(F)cc(F)cc1F)Nc1ccncc1', 5.39);

Can you share its pIC50? I mean this compound: "O=C(NCc1c(Cl)ccc(Cl)c1Cl)Nc1ccncc1"
5.98

Which pIC50 value is on record for "O=C(Nc1ccncc1)Nc1c(F)cccc1Cl" ?
5.54

Which value of pIC50 has been reported for "CCc1ccccc1CN1CCC(Nc2ccc3[nH]ncc3c2)CC1" in the records?
6.29

---

- study target: Rho kinase (fused protein of bovine Rho kinase catalyst region and glutathione S-transferase) (Bos taurus, UniProt Q28021)
Each entry below carries its reported IC50.
Answer format: numeric, µM implied, no suffix.

Field: example entries. Status: answers known.
INSERT INTO results (molecule, units_of_measure, obs_value) VALUES
  ('O=C(NCc1ccc(Cl)cc1Cl)Nc1ccncc1 [Example 53]', 'µM', 4.14),
  ('O=C(/C=C/c1cccc(O)c1)Nc1ccc2[nH]ncc2c1 [Example 36]', 'µM', 0.6),
  ('O=C(Nc1ccncc1)Nc1c(F)cccc1C(F)(F)F [Example 58]', 'µM', 13.5);

Now consider the entry below.
Using the record for O=C(COc1ccc(O)cc1)Nc1ccc2[nH]ncc2c1 [Example 51] , report its IC50.
0.459
